Data origin, for the record: paper PMC3853373

# system_under_test: human PNMT (hPNMT) (Homo sapiens)
# Sequence (P11086 whole entry): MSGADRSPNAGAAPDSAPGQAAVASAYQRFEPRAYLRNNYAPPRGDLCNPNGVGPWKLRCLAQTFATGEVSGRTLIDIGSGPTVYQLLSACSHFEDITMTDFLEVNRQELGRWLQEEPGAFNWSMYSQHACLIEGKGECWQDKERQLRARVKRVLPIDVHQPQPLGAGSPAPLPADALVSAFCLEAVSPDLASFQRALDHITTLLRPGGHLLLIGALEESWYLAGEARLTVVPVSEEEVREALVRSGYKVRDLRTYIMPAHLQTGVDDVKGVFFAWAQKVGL
experimental_endpoint: pKd
Units for pKd: none; it is -log10 of a concentration expressed in mol/L.

The compound listed as C[S+](CC[C@H](N)C(=O)[O-])C[C@H]1O[C@@H](n2cnc3c(N)ncnc32)[C@H](O)[C@@H]1O (stereo partly shown) shows pKd equal to 5.34

Query NC[C@H](O)c1ccc(O)c(O)c1 [NE, norepinephrine] yields pKd of 5.14

NCC(O)c1ccccc1 (stereo not shown) yielded pKd of 4.22

Note to self: pKd recorded for NCC(O)c1ccc(O)cc1 (stereo not shown) was 5.48
